- system.name: IL36R
- assay.text: Kd (SPR)
measure: Kd

[
  {
    "binder": "unnamed (protein) chain 1: QVQLVQSGAEVKKPGASVKVSCKASGYSFTSSWIHWVKQAPGQGLEWMGEIYPGNSNTNYNENFRNKVTMTVDTSISTAYMELSRLRSDDTAVYYCTRVRYGEPYFDYWGQGTLVTVSS chain 2: QIVLTQSPGTLSLSPGERATMTCTASSSVSSSYFHWYQQKPGQAPRLWIYRTSRLASGVPDRFSGSGSGTDFTLTISRLEPEDAATYYCHQFHRSPLTFGAGTKLEIK",
    "measured.value": "0.933 nM"
  },
  {
    "binder": "unnamed (protein) chain 1: QVQLVQSGAEVKKPGASVKVSCKASGYSFTSSWIHWVKQAPGQGLEWMGEINPGNVRTNYNENFRNKVTMTVDTSISTAYMELSRLRSDDTAVYYCTRVVFGEPYFDYWGQGTLVTVSS chain 2: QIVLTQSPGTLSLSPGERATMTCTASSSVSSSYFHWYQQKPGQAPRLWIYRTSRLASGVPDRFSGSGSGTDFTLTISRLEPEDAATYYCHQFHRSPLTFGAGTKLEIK",
    "measured.value": "1.54 nM"
  },
  {
    "binder": "unnamed (protein) chain 1: QVQLVQSGAEVKKPGASVKVSCKASGYSFTSSWIHWVKQAPGQGLEWMGEINPGNVRTNYNENFRNKVTMTVDTSISTAYMELSRLRSDDTAVYYCTRSRYGEPWFDYWGQGTLVTVSS chain 2: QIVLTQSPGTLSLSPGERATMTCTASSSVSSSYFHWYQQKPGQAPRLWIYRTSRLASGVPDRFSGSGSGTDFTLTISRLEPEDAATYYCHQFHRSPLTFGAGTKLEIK",
    "measured.value": "24.5 nM"
  },
  {
    "binder": "unnamed (protein) chain 1: QVQLVQSGAEVKKPGASVKVSCKASGYTFTSSWIHWVKQAPGQGLEWMGEIYPGNSNTNYNENFRNKVTMTVDTSISTAYMELSRLRSDDTAVYYCTRSRYGEPWFDYWGQGTLVTVSS chain 2: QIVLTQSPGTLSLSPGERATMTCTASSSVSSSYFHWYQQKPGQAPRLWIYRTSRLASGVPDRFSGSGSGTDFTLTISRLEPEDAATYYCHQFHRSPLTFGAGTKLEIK",
    "measured.value": "157 nM"
  },
  {
    "binder": "unnamed (protein) chain 1: QVQLVQSGAEVKKPGASVKVSCKASGYSFTSSWIHWVKQAPGQGLEWMGEINPGNVRTNYNENFRNKVTMTVDTSISTAYMELSRLRSDDTAVYYCTRVSFGEPWFDYWGQGTLVTVSS chain 2: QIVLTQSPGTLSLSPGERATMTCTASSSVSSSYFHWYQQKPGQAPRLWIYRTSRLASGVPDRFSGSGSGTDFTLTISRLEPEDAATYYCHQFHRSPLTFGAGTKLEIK",
    "measured.value": "7.07 nM"
  }
]
